# key: entry, value: yeast fitness
B1: tRNA (parent)
chain: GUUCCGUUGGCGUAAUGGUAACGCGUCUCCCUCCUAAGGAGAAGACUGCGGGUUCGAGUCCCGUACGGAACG

- Variants of: B1
- TEST DETAILS: yeast fitness relative to wild type (ratio to wild type); higher = fitter; tRNA-Arg(CCU), competitive growth, 37 C, YPD
This sample holds only a part of the variants without activity.
Please give only the number in your answer, with no unit.

// solved cases for yeast fitness follow
GUUCGGUUGGCAUAAUGGUAACGCGUCACCCUCCUAAGGAGAAGACUGCGGGUUCGAGUCCCGUGCGGAACG
0.703
GUUCCGUUGGCGUAAUGGUAACGCGUCUCCCUCCUAAGGAGAGGAUUGCGGGUUCGAGUCCCGUACGGAACG
0.92
GUUCCGUUGGCGUAAUGGUAACGCGUCUCCCUCCUACGGAGAAGACUGCGGGUUCGAGUUCCGUACAGAACG
0.522
GUUCCCUUGGCGUACUGGUAACGCGUCUCCCUCCUAAGGAGAAGAAUGCGGGUUCGAGUCCCGUACGGAACG
0.504

Return reported yeast fitness; argument: GUACCGUUGGCGUAAUGGUAACGCGUCUCCCACCUAAGGAGAAGACUGCGGGUUCGAGUCCCGUACGGAACG
0.74

Return reported yeast fitness; argument: GUUCCCUUGGCGUAAUGGUAACGGGUGUACCUCUUAAGGAGAAGACUGCGGGUUCGAGUCCCGUACGGAACG
0.684

Return reported yeast fitness; argument: GUUCCGUUGGCGUAAUGGUAACGCGUCUCCCUCCUAAGGUGAAGACUGCGGGUACGAGUCCCGUACGGAACG
0.576

Return reported yeast fitness; argument: GUUCCGUUGGCGUAAUGGUAACGCGUCUCGCUCCUAAGGAGAAGACUGCGGGUUCGUGUCCCGUACGGAACG
0.609

Return reported yeast fitness; argument: GUUCCGUUGGCGUAAUGGUAAUGCGUCUCCCUCCUAAGGAGAAGACUGCGGGUUCGUGUCCCGUACGGAACG
0.617

Return reported yeast fitness; argument: GUUCCGUUGGCGUAAUCGUAACGCGCCUCCCUCCUAAGGAGAAGAUUGCGGGUUCGAGUCCCGUUCGGAACG
0.558

Return reported yeast fitness; argument: GUUCCGUUGGCGUAAUGGUAACGCGUCUCCCUGCUAAGGAGAAAACUGCGGGUUCAAGUCCCGUGCGGAACG
0.554

Return reported yeast fitness; argument: GUUCCGUUGGCGUAAUGGUAACGCGUCUCCCUCCUAAGGAGAAGAAUGCGGGUUCGAAUCCCGUACGGAACG
0.837

Return reported yeast fitness; argument: GUUCCGUUGGCGUAAUGGUAACGCGUCUCCCUCCUAAGGAGAAAACUGCGGGUUCGAGUCCCGUCCGGAACG
1.05

Return reported yeast fitness; argument: GUUCCCUUGGCGUGAUGGUCACGCGUCUCCCUCCUAAGGAGAAGACUGCGGGUUCGAGUCCCGUACGGAACG
0.501

Return reported yeast fitness; argument: GUUGCGUUGGCGUAAUGGUAACGCGUCUCCCUCCUAAGGAGAAGACUGCGGGUUCGAGUUCCGUACGGAACG
0.817
